The following compounds are shown together with reported inhibition values.
Species on record: Homo sapiens
Assay: Inhibition of actin (unknown origin) polymerization at 1 uM incubated for 20 mins in presence of ATP by ELISA analysis relative to control
Give the quantity in %, number only.

- compound: "CO[C@]1([C@@H]2CSC(=O)N2)C[C@H]2C[C@@H](CC[C@H](C)/C=C\\C=C\\CC/C(C)=C\\C(=O)O2)O1"
  inhibition [%]: 21
- compound: "C/C1=C/C(=O)O[C@@H]2C[C@@H](CC[C@H](C)/C=C\\C=C\\CC1)O[C@@](O)([C@@H]1CSC(=O)N1)C2 [LATRUNCULIN A]"
  inhibition [%]: 70

input: Would you kindly share the measured inhibition for "C/C1=C/C(=O)O[C@@H]2C[C@@H](CC[C@H](C)/C=C\C=C\CC1)O[C@@](O)([C@@H]1CSC(=O)N1CO)C2" ?
output: 90
